tested_on: T1, IL10Rβ (UniProt Q08334 20-220)
T1 sequence (looked up): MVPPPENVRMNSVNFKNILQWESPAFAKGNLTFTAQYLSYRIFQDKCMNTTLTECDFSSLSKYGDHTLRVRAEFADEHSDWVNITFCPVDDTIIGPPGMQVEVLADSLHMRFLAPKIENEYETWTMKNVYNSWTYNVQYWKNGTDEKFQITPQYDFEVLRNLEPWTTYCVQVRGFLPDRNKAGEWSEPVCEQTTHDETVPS
method_description: BLI
binders and their reported Kd
Response body: numeric value in nM, unit text excluded.

Example binders with recorded Kd:
IFNλ4 variant M1 (L28N) (ligand, human, UniProt K9M1U5 22-179, looked up, biotinylated (site not stated) for BLI; N-glycan at N61; mutated L28N not glycosylated) AAPRRCNLSHYRSLEPRTLAAAKALRDRYEEEALSWGQRNCSFRPRRDPPRPSSCARLRHVARGIADAQAVLSGLHRSELLPGAGPILELLAAAGRDVAACLELARPGSSRKVPGAQKRRHKPRRADSPRCRKASVVFNLLRLLTWELRLAAHSGPCL: 49
IFNλ4 variant M3 (P73N) (ligand, human, UniProt K9M1U5 22-179, looked up, biotinylated (site not stated) for BLI; N-glycans at N61 and at mutated P73N) AAPRRCLLSHYRSLEPRTLAAAKALRDRYEEEALSWGQRNCSFRPRRDPPRNSSCARLRHVARGIADAQAVLSGLHRSELLPGAGPILELLAAAGRDVAACLELARPGSSRKVPGAQKRRHKPRRADSPRCRKASVVFNLLRLLTWELRLAAHSGPCL: 51

Requested field: Kd. Item: IFNλ4 WT purified from E. coli (eIFNλ4) (ligand, human, UniProt K9M1U5 22-179, looked up, biotinylated (site not stated) for BLI) AAPRRCLLSHYRSLEPRTLAAAKALRDRYEEEALSWGQRNCSFRPRRDPPRPSSCARLRHVARGIADAQAVLSGLHRSELLPGAGPILELLAAAGRDVAACLELARPGSSRKVPGAQKRRHKPRRADSPRCRKASVVFNLLRLLTWELRLAAHSGPCL
71

What value of Kd has been recorded for this entry: IFNλ4 variant M7 (L28N + P73N) (ligand, human, UniProt K9M1U5 22-179, looked up, biotinylated (site not stated) for BLI; N-glycans at N61 and at mutated P73N; mutated L28N not glycosylated) AAPRRCNLSHYRSLEPRTLAAAKALRDRYEEEALSWGQRNCSFRPRRDPPRNSSCARLRHVARGIADAQAVLSGLHRSELLPGAGPILELLAAAGRDVAACLELARPGSSRKVPGAQKRRHKPRRADSPRCRKASVVFNLLRLLTWELRLAAHSGPCL
49
